Quick list: EC50 Rat APJ Receptor per entry.
Biological target: T1, rat APJ receptor (rat, UniProt Q9JHG3 1-377)
T1 sequence (looked up): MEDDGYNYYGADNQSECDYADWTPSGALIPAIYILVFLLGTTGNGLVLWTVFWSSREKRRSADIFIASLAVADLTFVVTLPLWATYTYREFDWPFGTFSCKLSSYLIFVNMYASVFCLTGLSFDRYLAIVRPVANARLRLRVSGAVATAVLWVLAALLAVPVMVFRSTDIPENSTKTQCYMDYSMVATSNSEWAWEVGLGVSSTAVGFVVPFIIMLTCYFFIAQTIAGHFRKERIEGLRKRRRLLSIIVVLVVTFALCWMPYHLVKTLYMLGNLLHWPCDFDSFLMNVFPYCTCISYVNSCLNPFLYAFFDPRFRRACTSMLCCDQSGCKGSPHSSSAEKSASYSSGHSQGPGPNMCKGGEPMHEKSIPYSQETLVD
Assay: cell-based or functional assay
Starred links: 1 amine or outer side, 2 acyl side, 3 side chain; linkers in the order of their positions; H or OH if unused. Non-standard residues stand in square brackets, D forms with d. No end group written: not given here. *: point of attachment. PEG12 = NCCOCCOCCOCCOCCOCCOCCOCCOCCOCCOCCOCCOCCC(=O)O; dBip = N[C@H](Cc1ccc(-c2ccccc2)cc1)C(=O)O; Oic = O=C(O)[C@@H]1C[C@@H]2CCCC[C@@H]2N1; Phe(4-Cl) = N[C@@H](Cc1ccc(Cl)cc1)C(=O)O; Phe(4-I) = N[C@@H](Cc1ccc(I)cc1)C(=O)O; γGlu = O=C(O)[C@H](CCC(=O)[*:2])N[*:1]; Tridecanoyl = CCCCCCCCCCCCC(=O)*; hArg = N=C(N)NCCCC[C@H](N)C(=O)O; Cha = N[C@@H](CC1CCCCC1)C(=O)O; NMeL = CN[C@@H](CC(C)C)C(=O)O; Nle = CCCC[C@H](N)C(=O)O; AEEA = NCCOCCOCC(=O)O; BLeu = β-leucine
Give your result in nM as a bare value.

Below: 2 binders and their reported EC50 Rat APJ Receptor.
[
  {
    "binder": "Ac-[dR]QRP[hArg][NMeL]SHKG[Oic][Phe(4-I)]P[dBip]-OH (SMILES CC(=O)N[C@H](CCCNC(=N)N)C(=O)N[C@@H](CCC(N)=O)C(=O)N[C@@H](CCCNC(=N)N)C(=O)N1CCC[C@H]1C(=O)N[C@@H](CCCCNC(=N)N)C(=O)N(C)[C@@H](CC(C)C)C(=O)N[C@@H](CO)C(=O)N[C@@H](Cc1c[nH]cn1)C(=O)N[C@@H](CCCCN)C(=O)NCC(=O)N1[C@H](C(=O)N[C@@H](Cc2ccc(I)cc2)C(=O)N2CCC[C@H]2C(=O)N[C@H](Cc2ccc(-c3ccccc3)cc2)C(=O)O)C[C@@H]2CCCC[C@@H]21) [apelin polypeptide SEQ ID NO: 52]",
    "EC50 Rat APJ Receptor / nM": 1.14
  },
  {
    "binder": "[PEG12]KFRRQRP[hArg][Cha]SHKG[Oic][Nle]P[Phe(4-Cl)]-OH (also: PEG-apelin peptide conjugate) [apelin polypeptide SEQ ID NO: 102]",
    "EC50 Rat APJ Receptor / nM": 0.18
  }
]

[in] Any idea what its EC50 Rat APJ Receptor is? The binder is Tridecanoyl-[γGlu][AEEA][AEEA][BLeu][hArg]P[dR][Cha]SHKG[Oic][Nle]P[Phe(4-Cl)]-OH [apelin polypeptide SEQ ID NO: 278]
[out] 14.5
